Assignment: determine reported % of Radioactivity in Microsomes, Monkey for the given compounds.
- method: Metabolite profile of [14C] compound (I) in monkey liver microsome incubations
- Assay type: in vitro ADME, cynomolgus monkey
- test context: (Ia) 20 μM, 15 min, 37° C., 2 mg/mL microsomal protein, 2.0 mM NADPH
Answer with a number only, understood to be in %.

IN: Given the entry Cc1nc(Nc2ncc(C(=O)Nc3c(C)cccc3Cl)s2)cc(N2CC[N+]([O-])(CCO)CC2)n1 , report its measured % of Radioactivity in Microsomes, Monkey.
OUT: 8.6

IN: Given the entry Cc1nc(Nc2ncc(C(=O)Nc3c(Cl)cccc3CO)s2)cc(N2CCN(CCO)CC2)n1 , report its measured % of Radioactivity in Microsomes, Monkey.
OUT: 30.0

IN: Given the entry Cc1nc(Nc2ncc(C(=O)Nc3c(C)cccc3Cl)s2)cc(N2CCN(CC(=O)O)CC2)n1 , report its measured % of Radioactivity in Microsomes, Monkey.
OUT: 2.1

IN: Given the entry Cc1nc(Nc2ncc(C(=O)Nc3c(C)cccc3Cl)s2)cc(N2CCN(CCO)CC2)n1 [Parent (I), reference compound] , report its measured % of Radioactivity in Microsomes, Monkey.
OUT: 27.7

IN: Given the entry Cc1nc(Nc2ncc(C(=O)Nc3c(C)cccc3Cl)s2)cc(N2CCNCC2)n1 , report its measured % of Radioactivity in Microsomes, Monkey.
OUT: 5.8

IN: Given the entry Cc1nc(Nc2ncc(C(=O)Nc3c(C)cc(O)cc3Cl)s2)cc(N2CCN(CCO)CC2)n1 , report its measured % of Radioactivity in Microsomes, Monkey.
OUT: 30.0

----------
- method: Radioactive metabolites in plasma, urine and feces after single oral dose of [14C] compound (I) to monkeys
- Assay type: in vivo, cynomolgus monkey
- test context: oral 10 mg/kg, pooled urine 0-168 hr
// assign Condition met if Metabolites in Urine (0-168 hr), Monkey, % Dose falls strictly below 0.06%, else Condition not met (ties count as Condition not met)

IN: Problem: For the compound Cc1nc(Nc2ncc(C(=O)Nc3c(C)cccc3Cl)s2)cc(N2CCNCC2)n1 , is Metabolites in Urine (0-168 hr), Monkey, % Dose under 0.06%?
OUT: Condition met

IN: Problem: For the compound Cc1nc(Nc2ncc(C(=O)Nc3c(C)cccc3Cl)s2)cc(N2CC[N+]([O-])(CCO)CC2)n1 , is Metabolites in Urine (0-168 hr), Monkey, % Dose under 0.06%?
OUT: Condition not met

IN: Problem: For the compound Cc1nc(Nc2ncc(C(=O)Nc3c(C)cccc3Cl)s2)cc(N2CCN(CCO)CC2)n1 [Parent (I), reference compound] , is Metabolites in Urine (0-168 hr), Monkey, % Dose under 0.06%?
OUT: Condition not met

IN: Problem: For the compound Cc1nc(Nc2ncc(C(=O)Nc3c(C)cc(O)cc3Cl)s2)cc(N2CCN(CCO)CC2)n1 , is Metabolites in Urine (0-168 hr), Monkey, % Dose under 0.06%?
OUT: Condition met

----------
- method: Radioactive metabolites in plasma, urine and feces after single oral dose of [14C] compound (I) to humans
- Format: in vivo, human
- test context: oral 100-mg, pooled urine 0-168 hr
observed property: Metabolites in Urine (0-168 hr), Human, % Rad (%)
Answer with a number only, understood to be in %.

IN: Given the entry Cc1nc(Nc2ncc(C(=O)Nc3c(Cl)cccc3CO)s2)cc(N2CCN(CCO)CC2)n1 , report its measured Metabolites in Urine (0-168 hr), Human, % Rad.
OUT: 6.0

IN: Given the entry Cc1nc(Nc2ncc(C(=O)Nc3c(C)cccc3Cl)s2)cc(N2CC[N+]([O-])(CCO)CC2)n1 , report its measured Metabolites in Urine (0-168 hr), Human, % Rad.
OUT: 39.8

IN: Given the entry Cc1nc(Nc2ncc(C(=O)Nc3c(C)cccc3Cl)s2)cc(N2CCN(CCO)CC2)n1 [Parent (I), reference compound] , report its measured Metabolites in Urine (0-168 hr), Human, % Rad.
OUT: 3.6

IN: Given the entry Cc1nc(Nc2ncc(C(=O)Nc3c(C)cc(O)cc3Cl)s2)cc(N2CCN(CCO)CC2)n1 , report its measured Metabolites in Urine (0-168 hr), Human, % Rad.
OUT: 4.1

IN: Given the entry Cc1nc(Nc2ncc(C(=O)Nc3c(C)cccc3Cl)s2)cc(N2CCN(CC(=O)O)CC2)n1 , report its measured Metabolites in Urine (0-168 hr), Human, % Rad.
OUT: 1.3

IN: Given the entry Cc1nc(Nc2ncc(C(=O)Nc3c(C)cccc3Cl)s2)cc(N2CCNCC2)n1 , report its measured Metabolites in Urine (0-168 hr), Human, % Rad.
OUT: 1.3
